The reported numbers originate from ChEMBL document CHEMBL3875154.

# ASSAYED SYSTEM: Dual 3',5'-cyclic-AMP and -GMP phosphodiesterase 11A (Homo sapiens, UniProt Q9HCR9)
# Sequence (Q9HCR9 whole entry): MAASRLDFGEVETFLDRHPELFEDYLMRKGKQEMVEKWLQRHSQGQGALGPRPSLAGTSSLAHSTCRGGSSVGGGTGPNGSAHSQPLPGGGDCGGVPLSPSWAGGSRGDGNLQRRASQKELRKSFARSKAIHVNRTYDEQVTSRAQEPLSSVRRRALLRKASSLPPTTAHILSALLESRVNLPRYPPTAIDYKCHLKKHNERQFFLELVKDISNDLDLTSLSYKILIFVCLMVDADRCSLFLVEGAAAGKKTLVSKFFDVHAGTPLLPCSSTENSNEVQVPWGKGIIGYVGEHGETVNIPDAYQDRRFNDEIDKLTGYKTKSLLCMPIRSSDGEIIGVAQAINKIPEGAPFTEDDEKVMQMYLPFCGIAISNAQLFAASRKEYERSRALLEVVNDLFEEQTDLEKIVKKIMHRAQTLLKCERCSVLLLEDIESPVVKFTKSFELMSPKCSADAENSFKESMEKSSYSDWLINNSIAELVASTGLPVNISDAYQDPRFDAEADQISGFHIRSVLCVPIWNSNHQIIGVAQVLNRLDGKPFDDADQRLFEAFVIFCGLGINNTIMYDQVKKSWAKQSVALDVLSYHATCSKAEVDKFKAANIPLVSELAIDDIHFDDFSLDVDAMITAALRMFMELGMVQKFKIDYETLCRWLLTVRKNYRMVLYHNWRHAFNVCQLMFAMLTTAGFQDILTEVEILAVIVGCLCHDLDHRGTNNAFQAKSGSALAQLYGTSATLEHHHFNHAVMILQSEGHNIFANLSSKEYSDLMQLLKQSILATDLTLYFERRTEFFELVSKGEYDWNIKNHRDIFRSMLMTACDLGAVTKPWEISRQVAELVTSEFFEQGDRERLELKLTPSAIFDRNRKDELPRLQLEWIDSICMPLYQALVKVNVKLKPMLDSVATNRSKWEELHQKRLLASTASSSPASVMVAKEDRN
pIC50: −log10 of the molar value.

COMPOUND	pIC50
O=C(Nc1ccccc1Cl)c1ccc(OC(F)F)c(OC2CCCC2)c1	< 4.00

* * *

# ASSAYED SYSTEM: 3',5'-cyclic-AMP phosphodiesterase 4A (Homo sapiens, UniProt P27815)
# Sequence (P27815 whole entry): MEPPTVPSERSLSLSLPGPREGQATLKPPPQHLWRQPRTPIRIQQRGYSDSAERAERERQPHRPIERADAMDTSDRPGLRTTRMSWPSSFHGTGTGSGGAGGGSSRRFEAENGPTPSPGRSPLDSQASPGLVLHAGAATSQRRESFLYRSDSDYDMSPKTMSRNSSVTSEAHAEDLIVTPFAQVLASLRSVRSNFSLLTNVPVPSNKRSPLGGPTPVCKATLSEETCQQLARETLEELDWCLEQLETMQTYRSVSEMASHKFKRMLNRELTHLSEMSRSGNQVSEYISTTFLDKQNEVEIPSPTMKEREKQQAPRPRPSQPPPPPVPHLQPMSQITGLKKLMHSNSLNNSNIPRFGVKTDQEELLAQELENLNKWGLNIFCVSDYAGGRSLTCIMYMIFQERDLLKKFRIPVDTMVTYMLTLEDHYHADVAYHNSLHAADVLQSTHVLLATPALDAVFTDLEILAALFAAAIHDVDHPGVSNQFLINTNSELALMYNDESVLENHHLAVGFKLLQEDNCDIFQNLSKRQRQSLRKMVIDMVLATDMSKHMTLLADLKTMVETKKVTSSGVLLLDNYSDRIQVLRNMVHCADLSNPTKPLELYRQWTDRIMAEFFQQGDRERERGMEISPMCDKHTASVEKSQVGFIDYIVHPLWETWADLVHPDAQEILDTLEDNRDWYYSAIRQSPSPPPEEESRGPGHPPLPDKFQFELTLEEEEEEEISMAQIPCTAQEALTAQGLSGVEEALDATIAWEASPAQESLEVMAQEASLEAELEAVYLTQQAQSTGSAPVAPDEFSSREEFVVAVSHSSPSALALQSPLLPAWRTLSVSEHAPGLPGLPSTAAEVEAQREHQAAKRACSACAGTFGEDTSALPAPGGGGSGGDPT
# PROTOCOL SUMMARY: Inhibition of full length human PDE4A4 at 10^4 nM using FAM-3',5'-cAMP as substrate after 1 hr by fluorescence polarization assay relative to control
MEASURED PROPERTY: inhibition (%)

COMPOUND	QUANTITATIVE RESULT
O=C(Nc1ccccc1Cl)c1ccc(OC(F)F)c(OC2CCCC2)c1	98
O=C(Nc1ccccc1Cl)c1ccc(OC(F)F)c(OCC2CC2)c1	100
O=C(Nc1cccnc1)c1ccc(OC(F)F)c(OCC2CC2)c1	98
O=C(Nc1cccnc1)c1ccc(OC(F)F)c(OC2CCCC2)c1	98

* * *

# ASSAYED SYSTEM: Dual specificity calcium/calmodulin-dependent 3',5'-cyclic nucleotide phosphodiesterase 1A (Homo sapiens)
# Sequence (P54750 whole entry): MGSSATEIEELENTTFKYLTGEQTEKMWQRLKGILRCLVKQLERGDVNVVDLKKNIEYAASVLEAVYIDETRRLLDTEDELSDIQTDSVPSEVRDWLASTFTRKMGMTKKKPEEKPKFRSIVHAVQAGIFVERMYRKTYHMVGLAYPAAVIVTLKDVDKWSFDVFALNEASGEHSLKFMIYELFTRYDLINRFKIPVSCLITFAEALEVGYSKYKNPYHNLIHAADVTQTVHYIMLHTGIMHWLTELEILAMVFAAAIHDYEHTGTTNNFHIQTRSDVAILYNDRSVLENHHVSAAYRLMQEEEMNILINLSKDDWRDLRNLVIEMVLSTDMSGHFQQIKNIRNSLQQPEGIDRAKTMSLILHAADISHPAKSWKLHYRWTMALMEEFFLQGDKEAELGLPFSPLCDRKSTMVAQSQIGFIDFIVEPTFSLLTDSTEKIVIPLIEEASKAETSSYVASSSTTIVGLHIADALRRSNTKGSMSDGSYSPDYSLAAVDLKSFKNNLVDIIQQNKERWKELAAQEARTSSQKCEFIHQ
# PROTOCOL SUMMARY: Inhibition of human PDE1A at 10^4 nM using FAM-3',5'-cAMP as substrate after 1 hr by fluorescence polarization assay relative to control
inhibition for assorted compounds
MEASURED PROPERTY: inhibition (%)

COMPOUND	ENDPOINT UNIT	QUANTITATIVE RESULT
O=C(Nc1cccnc1)c1ccc(OC(F)F)c(OC2CCCC2)c1	%	0
O=C(Nc1ccccc1Cl)c1ccc(OC(F)F)c(OC2CCCC2)c1	%	3
O=C(Nc1ccccc1Cl)c1ccc(OC(F)F)c(OCC2CC2)c1	%	6
O=C(Nc1cccnc1)c1ccc(OC(F)F)c(OCC2CC2)c1	%	20

* * *

# ASSAYED SYSTEM: 3',5'-cyclic-AMP phosphodiesterase 4B (Homo sapiens)
# Sequence (Q07343 whole entry): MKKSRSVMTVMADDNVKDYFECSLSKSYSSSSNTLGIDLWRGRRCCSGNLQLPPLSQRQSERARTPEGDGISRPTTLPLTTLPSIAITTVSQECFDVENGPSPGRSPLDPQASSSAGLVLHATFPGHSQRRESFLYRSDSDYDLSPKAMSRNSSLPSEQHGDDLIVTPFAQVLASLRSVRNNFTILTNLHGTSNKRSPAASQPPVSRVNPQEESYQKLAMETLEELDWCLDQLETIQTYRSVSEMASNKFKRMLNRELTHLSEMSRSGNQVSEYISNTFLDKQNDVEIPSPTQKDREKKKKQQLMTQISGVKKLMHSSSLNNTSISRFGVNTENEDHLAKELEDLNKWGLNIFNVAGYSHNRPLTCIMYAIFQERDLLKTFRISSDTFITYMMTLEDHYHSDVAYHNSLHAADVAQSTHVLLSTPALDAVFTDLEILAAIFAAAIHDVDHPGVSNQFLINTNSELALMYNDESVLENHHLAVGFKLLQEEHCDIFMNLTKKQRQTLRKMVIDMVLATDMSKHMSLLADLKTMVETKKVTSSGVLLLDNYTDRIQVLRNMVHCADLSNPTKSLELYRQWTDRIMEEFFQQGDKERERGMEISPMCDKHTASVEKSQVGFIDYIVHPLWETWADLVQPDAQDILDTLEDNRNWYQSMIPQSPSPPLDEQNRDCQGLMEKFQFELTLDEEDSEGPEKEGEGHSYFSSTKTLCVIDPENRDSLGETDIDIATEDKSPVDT
# PROTOCOL SUMMARY: Inhibition of full length human PDE4B1 at 10^4 nM using FAM-3',5'-cAMP as substrate after 1 hr by fluorescence polarization assay relative to control
MEASURED PROPERTY: inhibition (%)

COMPOUND	ENDPOINT UNIT	QUANTITATIVE RESULT
O=C(Nc1cccnc1)c1ccc(OC(F)F)c(OC2CCCC2)c1	%	99
O=C(Nc1cccnc1)c1ccc(OC(F)F)c(OCC2CC2)c1	%	99
O=C(Nc1ccccc1Cl)c1ccc(OC(F)F)c(OCC2CC2)c1	%	98
O=C(Nc1ccccc1Cl)c1ccc(OC(F)F)c(OC2CCCC2)c1	%	100

* * *

# ASSAYED SYSTEM: cGMP-inhibited 3',5'-cyclic phosphodiesterase 3B (Homo sapiens, UniProt Q13370)

COMPOUND	ASSAYED SYSTEM	IC50
O=C(Nc1ccccc1Cl)c1ccc(OC(F)F)c(OC2CCCC2)c1	cGMP-inhibited 3',5'-cyclic phosphodiesterase 3B (Homo sapiens, UniProt Q13370)	> 100 µM

* * *

inhibition for assorted molecules
# ASSAYED SYSTEM: 3',5'-cyclic-AMP phosphodiesterase 4D (Homo sapiens)
# PROTOCOL SUMMARY: Inhibition of full length human PDE4D7 at 10^4 nM using FAM-3',5'-cAMP as substrate after 1 hr by fluorescence polarization assay relative to control

COMPOUND	inhibition (%)
O=C(Nc1ccccc1Cl)c1ccc(OC(F)F)c(OCC2CC2)c1	99
O=C(Nc1cccnc1)c1ccc(OC(F)F)c(OCC2CC2)c1	100
O=C(Nc1cccnc1)c1ccc(OC(F)F)c(OC2CCCC2)c1	99
O=C(Nc1ccccc1Cl)c1ccc(OC(F)F)c(OC2CCCC2)c1	99

* * *

# ASSAYED SYSTEM: High affinity cGMP-specific 3',5'-cyclic phosphodiesterase 9A (Homo sapiens, UniProt O76083)
# Sequence (O76083 whole entry): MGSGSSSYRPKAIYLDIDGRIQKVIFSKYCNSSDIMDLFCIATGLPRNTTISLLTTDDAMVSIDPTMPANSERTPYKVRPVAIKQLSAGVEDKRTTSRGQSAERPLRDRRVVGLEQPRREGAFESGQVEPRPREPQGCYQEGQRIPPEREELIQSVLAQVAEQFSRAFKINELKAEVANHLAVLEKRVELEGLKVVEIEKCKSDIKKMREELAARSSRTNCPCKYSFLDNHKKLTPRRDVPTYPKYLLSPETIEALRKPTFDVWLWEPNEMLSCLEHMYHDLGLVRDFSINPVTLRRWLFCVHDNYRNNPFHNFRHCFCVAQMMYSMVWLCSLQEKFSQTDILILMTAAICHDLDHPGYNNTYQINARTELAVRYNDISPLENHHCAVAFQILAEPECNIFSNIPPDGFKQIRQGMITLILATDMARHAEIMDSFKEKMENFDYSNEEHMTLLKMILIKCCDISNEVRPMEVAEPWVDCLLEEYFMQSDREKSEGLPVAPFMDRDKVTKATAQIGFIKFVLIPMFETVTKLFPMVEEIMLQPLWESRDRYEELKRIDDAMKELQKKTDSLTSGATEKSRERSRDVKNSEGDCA
IC50 for assorted compounds

COMPOUND	IC50
O=C(Nc1cccnc1)c1ccc(OC(F)F)c(OC2CCCC2)c1	> 100 µM
O=C(Nc1cccnc1)c1ccc(OC(F)F)c(OCC2CC2)c1	> 100 µM
O=C(Nc1ccccc1Cl)c1ccc(OC(F)F)c(OCC2CC2)c1	> 100 µM
O=C(Nc1ccccc1Cl)c1ccc(OC(F)F)c(OC2CCCC2)c1	> 100 µM

* * *

# ASSAYED SYSTEM: 3',5'-cyclic-AMP phosphodiesterase 4D (Homo sapiens, UniProt Q08499)
# Sequence (Q08499 whole entry): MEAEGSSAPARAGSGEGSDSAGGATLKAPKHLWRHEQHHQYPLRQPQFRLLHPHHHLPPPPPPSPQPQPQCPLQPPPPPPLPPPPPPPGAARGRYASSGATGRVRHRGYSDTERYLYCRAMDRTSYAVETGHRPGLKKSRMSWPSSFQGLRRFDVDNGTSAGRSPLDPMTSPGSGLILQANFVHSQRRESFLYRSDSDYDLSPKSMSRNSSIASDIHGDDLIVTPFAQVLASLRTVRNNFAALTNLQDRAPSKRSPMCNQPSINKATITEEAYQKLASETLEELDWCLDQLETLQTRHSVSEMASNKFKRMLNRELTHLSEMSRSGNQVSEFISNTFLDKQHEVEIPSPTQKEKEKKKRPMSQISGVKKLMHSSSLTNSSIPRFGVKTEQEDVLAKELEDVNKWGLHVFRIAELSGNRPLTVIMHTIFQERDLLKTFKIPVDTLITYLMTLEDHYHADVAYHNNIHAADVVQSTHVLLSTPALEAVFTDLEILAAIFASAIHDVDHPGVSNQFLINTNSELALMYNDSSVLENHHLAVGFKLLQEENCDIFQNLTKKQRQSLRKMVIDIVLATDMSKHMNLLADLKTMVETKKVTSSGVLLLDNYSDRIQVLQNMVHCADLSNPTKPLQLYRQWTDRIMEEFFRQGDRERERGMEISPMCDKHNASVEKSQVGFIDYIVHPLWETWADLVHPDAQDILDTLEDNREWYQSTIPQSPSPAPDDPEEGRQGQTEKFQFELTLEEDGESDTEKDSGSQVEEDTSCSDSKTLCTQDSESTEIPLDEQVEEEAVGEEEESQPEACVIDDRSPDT
pIC50: −log10 of the molar value.
MEASURED PROPERTY: pIC50

COMPOUND	MEASURED PROPERTY	QUANTITATIVE RESULT
O=C(Nc1ccccc1Cl)c1ccc(OC(F)F)c(OCC2CC2)c1	pIC50	7.41
